The following molecules are shown together with reported Stability (% of remaining arachidonic acid by Method 1) values.
Conditions: A) aqueous solution without stabilizer addition; 24 h 37° C.
Express your answer in %, writing the number without its unit.

Examples with answers:
Prompt line: Fill in the blank: the reported Stability (% of remaining arachidonic acid by Method 1) of NCCc1c[nH]c2ccccc12 [Example 23] is ____.
Response line: 20

Prompt line: Fill in the blank: the reported Stability (% of remaining arachidonic acid by Method 1) of O=C(O)C=Cc1ccc(O)c(O)c1 [Example 17] is ____.
Response line: 19

Prompt line: Fill in the blank: the reported Stability (% of remaining arachidonic acid by Method 1) of NCCc1c[nH]c2ccc(O)cc12 [Example 22] is ____.
Response line: 16

Prompt line: Fill in the blank: the reported Stability (% of remaining arachidonic acid by Method 1) of NC(Cc1ccc(O)cc1)C(=O)O (stereo not shown) [Example 6] is ____.
Response line: 91

Prompt line: Fill in the blank: the reported Stability (% of remaining arachidonic acid by Method 1) of NCCc1ccc(O)c(O)c1 [Example 10] is ____.
Response line: 17

The record that follows has no Stability (% of remaining arachidonic acid by Method 1) shown yet.
Prompt line: Fill in the blank: the reported Stability (% of remaining arachidonic acid by Method 1) of N[C@@H](CCC(=O)N[C@@H](CS)C(=O)NCC(=O)O)C(=O)O [Example 35, Glutathione] is ____.
Response line: 0

====

Target: enzyme (from seminal vesicles of sheep) (Ovis aries)
Sequence (P05979 25-600): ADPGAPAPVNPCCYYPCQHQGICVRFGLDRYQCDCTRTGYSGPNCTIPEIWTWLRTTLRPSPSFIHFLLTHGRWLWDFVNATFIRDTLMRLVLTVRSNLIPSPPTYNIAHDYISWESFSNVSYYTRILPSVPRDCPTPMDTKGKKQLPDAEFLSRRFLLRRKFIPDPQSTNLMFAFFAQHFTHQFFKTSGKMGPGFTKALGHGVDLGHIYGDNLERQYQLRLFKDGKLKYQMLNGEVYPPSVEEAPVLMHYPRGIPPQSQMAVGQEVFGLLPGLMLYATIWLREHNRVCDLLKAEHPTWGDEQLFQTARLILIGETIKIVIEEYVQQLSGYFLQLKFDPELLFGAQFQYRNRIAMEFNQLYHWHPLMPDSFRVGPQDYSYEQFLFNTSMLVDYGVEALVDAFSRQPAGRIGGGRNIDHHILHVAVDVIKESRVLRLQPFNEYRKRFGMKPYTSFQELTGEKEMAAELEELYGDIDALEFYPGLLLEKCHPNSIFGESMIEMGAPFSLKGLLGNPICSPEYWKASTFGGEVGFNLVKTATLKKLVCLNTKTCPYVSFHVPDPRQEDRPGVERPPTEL
Details: seminal vesicle enzyme, 10 min, pH 8
Label Condition met when relative total prostaglandin f is strictly below 1; at or above that, label Condition not met.

Prompt line: Threshold test, relative total prostaglandin f < 1: O=c1c(O)c(-c2ccc(O)c(O)c2)oc2cc(O)cc(O)c12 [Example 57, Quercetin]
Response line: Condition met

Prompt line: Threshold test, relative total prostaglandin f < 1: NC(Cc1c[nH]c2ccc(O)cc12)C(=O)O (stereo not drawn) [Example 19]
Response line: Condition not met

Prompt line: Threshold test, relative total prostaglandin f < 1: NCCS [Example 43, Cysteamine, reference compound]
Response line: Condition met

Prompt line: Threshold test, relative total prostaglandin f < 1: O=C(CCc1ccc(O)cc1)c1c(O)cc(O)cc1O[C@@H]1O[C@H](CO)[C@@H](O)[C@H](O)[C@H]1O [Example 53, Phlorizin]
Response line: Condition not met

Prompt line: Threshold test, relative total prostaglandin f < 1: O=C(O)C=Cc1ccc(O)c(O)c1 [Example 17]
Response line: Condition not met

Prompt line: Threshold test, relative total prostaglandin f < 1: O[C@H](CS)[C@H](O)CS [Example 39, Dithiothreitol, reference compound]
Response line: Condition met

Prompt line: Threshold test, relative total prostaglandin f < 1: COC1=C(OC)C(=O)C(C/C=C(\C)CC/C=C(\C)CC/C=C(\C)CC/C=C(\C)CC/C=C(\C)CC/C=C(\C)CC/C=C(\C)CC/C=C(\C)CC/C=C(\C)CCC=C(C)C)=C(C)C1=O [Example 47, Vitamin Q10, reference compound]
Response line: Condition met

Prompt line: Threshold test, relative total prostaglandin f < 1: O[C@H](CS)[C@@H](O)CS [Example 40, Dithioerythritol, reference compound]
Response line: Condition met
